These data points were gathered from ChEMBL document CHEMBL4513216.

tested on: Plasmodium berghei; assay: Screen against P. berghei liver stage (PbLuc), transformed with Luciferase, at 10uM; format: functional, HepG2; settings: tested at 10 uM
Hit rate of the full screen: of about 69,000 compounds, about 8,600 (12%) showed an effect of 50% or more. Only a selection was taken, and strong results are over-represented in it overall.
Outcome: Met for INHIBITION of at least 10%; Not met for anything lower.

COMPOUND: Cc1cccnc1CC(C)Nc1ncc(C)c(N(C)C)n1 (stereo not given)
STUDY TARGET: Plasmodium berghei
CLASS LABEL: Met
--
COMPOUND: Cc1cnc(NC(C)Cc2cnccn2)nc1N(C)C (stereo not given)
STUDY TARGET: Plasmodium berghei
CLASS LABEL: Not met
--
COMPOUND: CCCn1c(NCCc2ccccc2)nc2c(C)nn(C)c2c1=O
STUDY TARGET: Plasmodium berghei
CLASS LABEL: Met
--
COMPOUND: Cc1nnsc1C(=O)NCc1cccnc1N(C)C
STUDY TARGET: Plasmodium berghei
CLASS LABEL: Met
--
COMPOUND: Cn1ccnc1CN1CCC(c2nnc(Cn3cccn3)n2C)CC1
STUDY TARGET: Plasmodium berghei
CLASS LABEL: Met
--
COMPOUND: Cc1ncsc1C(=O)NCc1cccnc1N(C)CCc1ccccn1
STUDY TARGET: Plasmodium berghei
CLASS LABEL: Met
--
COMPOUND: CN(C)c1nc2n(c(=O)n1)CCN2C(=O)Nc1cccc(Cl)c1
STUDY TARGET: Plasmodium berghei
CLASS LABEL: Met
--
COMPOUND: O=C(CCN1CCCCO1)NC1CCCN(CC2CCCCC2)C1 (stereo not given)
STUDY TARGET: Plasmodium berghei
CLASS LABEL: Met
--
COMPOUND: Cc1cc(NC(C)Cc2cccnc2)n2nccc2n1 (stereo not given)
STUDY TARGET: Plasmodium berghei
CLASS LABEL: Met
--
COMPOUND: COc1ccccc1-c1cc(C(=O)N(C)C)c2cnn(C)c2n1
STUDY TARGET: Plasmodium berghei
CLASS LABEL: Not met
--
COMPOUND: Cc1noc(C)c1CN1CCn2cc(CNc3ccccn3)nc2C1
STUDY TARGET: Plasmodium berghei
CLASS LABEL: Met
--
COMPOUND: O=C(NC1CC1)C1CCN(c2nc3nc[nH]c(=O)c3s2)CC1
STUDY TARGET: Plasmodium berghei
CLASS LABEL: Met
--
COMPOUND: O=C(CCN1CCOCC1)NC1CCCN(CC2CCCCC2)C1 (stereo not given)
STUDY TARGET: Plasmodium berghei
CLASS LABEL: Not met
--
COMPOUND: Cn1cnc2cc(CCC(=O)Nc3n[nH]c(C4CCCO4)n3)ccc21 (stereo not given)
STUDY TARGET: Plasmodium berghei
CLASS LABEL: Not met
--
COMPOUND: Cc1oc(C)c(C(=O)NCc2cccnc2N(C)C)c1C
STUDY TARGET: Plasmodium berghei
CLASS LABEL: Met
--
COMPOUND: O=C(CCN1CCCO1)NC1CCCN(CC2CCCCC2)C1 (stereo not given)
STUDY TARGET: Plasmodium berghei
CLASS LABEL: Met
--
COMPOUND: Cc1ccc(C(=O)NCc2cccnc2N(C)C)s1
STUDY TARGET: Plasmodium berghei
CLASS LABEL: Not met
--
COMPOUND: Cc1noc(C)c1C(=O)NCc1cccnc1N(C)C
STUDY TARGET: Plasmodium berghei
CLASS LABEL: Not met
--
COMPOUND: CCn1c(NCc2ccccc2)nc2c(C)nn(C)c2c1=O
STUDY TARGET: Plasmodium berghei
CLASS LABEL: Met
--
COMPOUND: Cc1ccc(C(=O)NCc2cccnc2N(C)C)o1
STUDY TARGET: Plasmodium berghei
CLASS LABEL: Met
--
COMPOUND: Cc1nn(C)c2c(=O)n(C(C)C)c(NCCc3ccccc3)nc12
STUDY TARGET: Plasmodium berghei
CLASS LABEL: Met
--
COMPOUND: Cn1ccnc1C(=O)N1CCC2(CC1)CC(Oc1cccnc1)CO2 (stereo not given)
STUDY TARGET: Plasmodium berghei
CLASS LABEL: Met
--
COMPOUND: Cc1nn(C)c2c(=O)n(C(C)C)c(NCC3CCCO3)nc12 (stereo not given)
STUDY TARGET: Plasmodium berghei
CLASS LABEL: Not met
--
COMPOUND: CNC(=O)C1CCN(c2nc3nc[nH]c(=O)c3s2)CC1
STUDY TARGET: Plasmodium berghei
CLASS LABEL: Met
--
COMPOUND: CCn1c(NCc2cccnc2)nc2c(C)nn(C)c2c1=O
STUDY TARGET: Plasmodium berghei
CLASS LABEL: Not met
